Biological target: JAK2 (Homo sapiens (Human), UniProt O60674)
Sequence (O60674 808-1132): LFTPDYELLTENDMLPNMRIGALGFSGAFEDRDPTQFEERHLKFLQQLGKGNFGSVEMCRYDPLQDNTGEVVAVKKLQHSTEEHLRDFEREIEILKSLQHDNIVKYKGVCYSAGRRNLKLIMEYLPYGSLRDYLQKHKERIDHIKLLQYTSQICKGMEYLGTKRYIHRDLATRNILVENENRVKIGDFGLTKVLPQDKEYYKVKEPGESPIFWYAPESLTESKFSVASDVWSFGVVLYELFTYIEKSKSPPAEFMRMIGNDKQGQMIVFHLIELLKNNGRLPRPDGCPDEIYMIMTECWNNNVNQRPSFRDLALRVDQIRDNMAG
Assay: JAK enzymatic assay (peptide mobility shift), JAK2
Conditions: recombinant JAK2 2 nM, JAKtide peptide, 150 minutes
pIC50 values for the compounds below.
Give only the number. pIC50 is defined as minus log10 of concentration in molar units.

Recorded pIC50, per entry:
>>> observed_measurement("CN(c1ncnc2[nH]ccc12)[C@H]1CC[C@H](CS(=O)(=O)N2CCCC(C(=O)O)C2)CC1 (stereo partly shown)")
8.11
>>> observed_measurement("CN(C)S(=O)(=O)C[C@H]1CCCN(S(=O)(=O)C[C@H]2CC[C@H](N(C)c3ncnc4[nH]ccc34)CC2)C1")
7.29
>>> observed_measurement("CN(C)C(=O)CO[C@@H]1CCN(S(=O)(=O)C[C@H]2CC[C@H](N(C)c3ncnc4[nH]ccc34)CC2)C1")
7.30

# input for lookup
Problem: Please look at this compound and report its pIC50: C[C@@H]1C[C@@H](CS(=O)(=O)N2CCC[C@@H](O)C2)CC[C@@H]1N(C)c1ncnc2[nH]ccc12
Solution: 8.16

* * *

Molecular target: JAK1 (Homo sapiens (Human), UniProt P23458)
Sequence (P23458 whole entry): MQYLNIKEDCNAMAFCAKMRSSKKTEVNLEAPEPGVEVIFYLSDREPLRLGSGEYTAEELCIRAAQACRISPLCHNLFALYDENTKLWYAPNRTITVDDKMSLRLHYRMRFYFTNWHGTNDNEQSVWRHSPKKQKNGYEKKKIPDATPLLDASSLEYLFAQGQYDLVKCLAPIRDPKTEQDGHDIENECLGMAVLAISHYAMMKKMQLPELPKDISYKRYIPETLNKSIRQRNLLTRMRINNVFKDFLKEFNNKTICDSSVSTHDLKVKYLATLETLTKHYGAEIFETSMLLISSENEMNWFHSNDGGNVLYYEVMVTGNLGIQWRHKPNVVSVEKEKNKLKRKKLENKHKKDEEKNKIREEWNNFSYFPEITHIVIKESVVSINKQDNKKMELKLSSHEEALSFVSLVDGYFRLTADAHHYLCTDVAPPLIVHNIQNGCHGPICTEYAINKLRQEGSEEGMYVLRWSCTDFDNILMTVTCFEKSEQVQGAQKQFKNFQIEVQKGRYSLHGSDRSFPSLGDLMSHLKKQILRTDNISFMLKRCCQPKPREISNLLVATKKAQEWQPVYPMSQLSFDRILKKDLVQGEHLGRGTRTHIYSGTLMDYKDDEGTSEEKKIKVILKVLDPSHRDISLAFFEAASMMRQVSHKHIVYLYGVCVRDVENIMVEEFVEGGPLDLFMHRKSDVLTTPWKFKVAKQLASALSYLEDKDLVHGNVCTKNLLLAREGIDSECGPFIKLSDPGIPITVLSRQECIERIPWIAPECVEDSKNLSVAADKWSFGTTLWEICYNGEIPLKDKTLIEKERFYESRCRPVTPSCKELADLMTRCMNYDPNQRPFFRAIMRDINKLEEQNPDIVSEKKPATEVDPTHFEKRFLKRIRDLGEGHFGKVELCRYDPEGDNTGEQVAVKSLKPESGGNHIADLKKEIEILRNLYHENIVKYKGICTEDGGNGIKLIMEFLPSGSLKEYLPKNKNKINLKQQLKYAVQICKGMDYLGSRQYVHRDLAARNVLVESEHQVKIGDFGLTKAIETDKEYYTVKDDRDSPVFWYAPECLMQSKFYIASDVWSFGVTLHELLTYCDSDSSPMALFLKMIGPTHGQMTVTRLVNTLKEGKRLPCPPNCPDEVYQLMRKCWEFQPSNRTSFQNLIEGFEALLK
Test: JAK enzymatic assay (peptide mobility shift), JAK1
Settings: recombinant JAK1 20 nM, IRS-1 peptide, 240 minutes
property-label: pIC50
Give only the number. pIC50 is defined as minus log10 of concentration in molar units.

Recorded pIC50, per entry:
>>> observed_measurement("CN(C(=O)OC(C)(C)C)[C@H]1CCN(S(=O)(=O)C[C@H]2CC[C@H](N(C)c3ncnc4[nH]ccc34)CC2)C1 [Example 92]")
8.16
>>> observed_measurement("CN(c1ncnc2[nH]ccc12)[C@H]1CC[C@H](CS(=O)(=O)N2CCCC(Cc3ccccn3)C2)CC1 (some centres unmarked) [Example 21]")
7.95
>>> observed_measurement("CN(c1ncnc2[nH]ccc12)[C@H]1CC[C@H](CS(=O)(=O)N2CCC(COCC3CC3)CC2)CC1 [Example 56]")
8.39
>>> observed_measurement("CN(c1ncnc2[nH]ccc12)[C@H]1CC[C@H](CS(=O)(=O)N2CC[C@@H](CC#N)C2)CC1 [Example 35]")
7.95
>>> observed_measurement("CN(c1ncnc2[nH]ccc12)[C@H]1CC[C@H](CS(=O)(=O)N2CCSC2)CC1 [Example 124]")
8.06
>>> observed_measurement("C[C@@H]1C[C@@H](CS(=O)(=O)N2CC[C@@H](CO)C2)CC[C@@H]1N(C)c1ncnc2[nH]ccc12 [Example 132]")
8.19
>>> observed_measurement("CN(c1ncnc2[nH]ccc12)[C@H]1CC[C@H](CS(=O)(=O)N2CC[C@@](O)(COc3cccc(F)c3)C2)CC1 [Example 84]")
8.51

# input for lookup
Problem: Please look at this molecule and report its pIC50: CN(c1ncnc2[nH]ccc12)[C@H]1CC[C@H](CS(=O)(=O)N2C[C@@H](O)[C@H](O)C2)CC1 [Example 72]
Solution: 8.23

* * *

Target: JAK1 (Homo sapiens (Human), UniProt P23458)
Experiment: JAK enzymatic assay (peptide mobility shift), JAK1
Settings: recombinant JAK1 20 nM, IRS-1 peptide, 240 minutes
property-label: pIC50
Give only the number. pIC50 is defined as minus log10 of concentration in molar units.

Recorded pIC50, per entry:
>>> observed_measurement("CN(c1ncnc2[nH]ccc12)[C@H]1CC[C@H](CS(=O)(=O)N2CCC[C@H](CO)C2)CC1 [Example 62]")
8.62
>>> observed_measurement("CC(=O)NCC1CCCN(S(=O)(=O)C[C@H]2CC[C@H](N(C)c3ncnc4[nH]ccc34)CC2)C1 (stereo partly shown) [Example 20]")
8.78

Problem: Please look at this compound and report its pIC50: CN(c1ncnc2[nH]ccc12)[C@H]1CC[C@H](CS(=O)(=O)N2CCC[C@@](C)(CO)C2)CC1 [Example 63]
Solution: 8.05

Problem: Please look at this compound and report its pIC50: COCCC1(C(N)=O)CCN(S(=O)(=O)C[C@H]2CC[C@H](N(C)c3ncnc4[nH]ccc34)CC2)CC1 [Example 45]
Solution: 8.80

Problem: Please look at this compound and report its pIC50: COCC1CCN(S(=O)(=O)C[C@H]2CC[C@H](N(C)c3ncnc4[nH]ccc34)CC2)CC1 [Example 43]
Solution: 7.89

Problem: Please look at this compound and report its pIC50: CN(c1ncnc2[nH]ccc12)[C@H]1CC[C@H](CS(=O)(=O)N2CCCC(CN3CCCC3)C2)CC1 (stereo partly shown) [Example 8]
Solution: 7.83

Problem: Please look at this compound and report its pIC50: CN(C)S(=O)(=O)C[C@H]1CCCN(S(=O)(=O)C[C@H]2CC[C@H](N(C)c3ncnc4[nH]ccc34)CC2)C1 [Example 57]
Solution: 8.11

* * *

Target: JAK1 (Homo sapiens (Human), UniProt P23458)
Assay: JAK enzymatic assay (peptide mobility shift), JAK1
Details: recombinant JAK1 20 nM, IRS-1 peptide, 240 minutes
Method: Recombinant JAK1 (Catalog Number PV4775), JAK2 (Catalog Number PV4210) and JAK3 (Catalog Number PV3855) were purchased from (Invitrogen Corporation, Madison, Wis.). […] Compounds were diluted serially in 100% dimethyl sulfoxide and tested in an 11 point dose response in duplicate or quadruplicate (200 nl of compound/DMSO was added per 10 L reaction). […] Data was analyzed using Hits Well Analyzer Software from (Caliper Life Sciences) to obtain the amount of product formed. […]
property-label: IC50 (nM)
Record the value in nM, omitting the unit from your answer.

Recorded IC50, per entry:
>>> observed_measurement("CN(c1ncnc2[nH]ccc12)[C@H]1CC[C@H](CS(=O)(=O)N2CCN(c3ncccc3C#N)CC2)CC1 [Example 122]")
12.1
>>> observed_measurement("CN(c1ncnc2[nH]ccc12)[C@H]1CC[C@H](CS(=O)(=O)N2CC[C@](C)(O)C2)CC1 [Example 99]")
8.34

Problem: Please look at this molecule and report its IC50: COCCOC1CCCN(S(=O)(=O)C[C@H]2CC[C@H](N(C)c3ncnc4[nH]ccc34)CC2)C1 (stereo partly shown) [Example 139]
Solution: 0.00125

Problem: Please look at this molecule and report its IC50: CN(c1ncnc2[nH]ccc12)[C@H]1CC[C@H](CS(=O)(=O)N2CC[C@@H](O)[C@@H](O)C2)CC1 [Example 13]
Solution: 6.99

Problem: Please look at this molecule and report its IC50: CN(c1ncnc2[nH]ccc12)[C@H]1CC[C@H](CS(=O)(=O)N2CCC(CS(=O)(=O)CC3CC3)CC2)CC1 [Example 49]
Solution: 11.7

Problem: Please look at this molecule and report its IC50: CN(c1ncnc2[nH]ccc12)[C@H]1CC[C@H](CS(=O)(=O)N2CCC(O)(c3ccccc3)CC2)CC1 [Example 24]
Solution: 5.03

Problem: Please look at this molecule and report its IC50: Cc1ccc(CC2CCN(S(=O)(=O)C[C@H]3CC[C@H](N(C)c4ncnc5[nH]ccc45)CC3)CC2)nn1 [Example 48]
Solution: 22.7

* * *

Target: JAK1 (Homo sapiens (Human))
Assay: JAK enzymatic assay (peptide mobility shift), JAK1
Settings: recombinant JAK1 20 nM, IRS-1 peptide, 240 minutes
pIC50 values for the compounds below.
Give only the number. pIC50 is defined as minus log10 of concentration in molar units.

Problem: Please look at this compound and report its pIC50: CN(c1ncnc2[nH]ccc12)[C@H]1CC[C@H](CS(=O)(=O)N2CC[C@@H](c3ccccc3)C2)CC1
Solution: 8.16

* * *

Biological target: JAK3 (Homo sapiens (Human), UniProt P52333)
Sequence (P52333 781-1124): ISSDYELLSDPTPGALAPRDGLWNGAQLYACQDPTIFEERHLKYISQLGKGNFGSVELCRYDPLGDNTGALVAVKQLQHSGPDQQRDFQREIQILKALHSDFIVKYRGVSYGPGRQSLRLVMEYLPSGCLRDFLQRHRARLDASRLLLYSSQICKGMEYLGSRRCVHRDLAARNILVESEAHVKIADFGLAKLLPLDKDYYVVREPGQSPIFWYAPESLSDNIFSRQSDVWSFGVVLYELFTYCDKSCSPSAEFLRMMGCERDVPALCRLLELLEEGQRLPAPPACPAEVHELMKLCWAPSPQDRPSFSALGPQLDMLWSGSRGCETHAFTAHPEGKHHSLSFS
Test: JAK enzymatic assay (peptide mobility shift), JAK3
Conditions: recombinant JAK3 1 nM, JAKtide peptide, 90 minutes
property-label: pIC50
Give only the number. pIC50 is defined as minus log10 of concentration in molar units.

Recorded pIC50, per entry:
>>> observed_measurement("CO[C@@H]1CCN(S(=O)(=O)C[C@H]2CC[C@H](N(C)c3ncnc4[nH]ccc34)CC2)C1")
6.33
>>> observed_measurement("CN(c1ncnc2[nH]ccc12)[C@H]1CC[C@H](CS(=O)(=O)N2CCN(c3ncccc3C(=O)NC3CC3)CC2)CC1")
6.23
>>> observed_measurement("CN(c1ncnc2[nH]ccc12)[C@H]1CC[C@H](CS(=O)(=O)N2CCCC(COc3ccc(F)cc3)C2)CC1 (some centres unmarked)")
5.00
>>> observed_measurement("CN(c1ncnc2[nH]ccc12)[C@H]1CC[C@H](CS(=O)(=O)N2CCC[C@H]2CN2CCCC2)CC1")
6.09
>>> observed_measurement("CCCS(=O)(=O)CC1CCCN(S(=O)(=O)C[C@H]2CC[C@H](N(C)c3ncnc4[nH]ccc34)CC2)C1 (some centres unmarked)")
6.13
>>> observed_measurement("Cc1ccc(CC2CCN(S(=O)(=O)C[C@H]3CC[C@H](N(C)c4ncnc5[nH]ccc45)CC3)CC2)nn1")
6.12

Problem: Please look at this compound and report its pIC50: CN(c1ncnc2[nH]ccc12)[C@H]1CC[C@H](CS(=O)(=O)N2CCC(O)CC2)CC1
Solution: 6.47

Problem: Please look at this compound and report its pIC50: C[C@@H]1C[C@@H](CS(=O)(=O)N2CCC[C@H](O)C2)CC[C@@H]1N(C)c1ncnc2[nH]ccc12
Solution: 7.49

Problem: Please look at this compound and report its pIC50: C[C@H]1CCCN1S(=O)(=O)C[C@H]1CC[C@H](N(C)c2ncnc3[nH]ccc23)CC1
Solution: 6.34

Problem: Please look at this compound and report its pIC50: CN(c1ncnc2[nH]ccc12)[C@H]1CC[C@H](CS(=O)(=O)N2CC[C@@](O)(CSc3ccccn3)C2)CC1
Solution: 7.07

Problem: Please look at this compound and report its pIC50: CN(c1ncnc2[nH]ccc12)[C@H]1CC[C@H](CS(=O)(=O)N2C[C@](C)(CO)[C@](C)(CO)C2)CC1
Solution: 6.24

Problem: Please look at this compound and report its pIC50: CN(c1ncnc2[nH]ccc12)[C@H]1CC[C@H](CS(=O)(=O)N2CCCC(Cc3ccccn3)C2)CC1 (some centres unmarked)
Solution: 6.23

Problem: Please look at this compound and report its pIC50: COC1CCN(S(=O)(=O)C[C@H]2CC[C@H](N(C)c3ncnc4[nH]ccc34)CC2)CC1
Solution: 6.20

Problem: Please look at this compound and report its pIC50: CN(c1ncnc2[nH]ccc12)[C@H]1CC[C@H](CS(=O)(=O)N2CCC[C@H](CS(C)(=O)=O)C2)CC1
Solution: 6.24

Problem: Please look at this compound and report its pIC50: CN(c1ncnc2[nH]ccc12)[C@H]1CC[C@H](CS(=O)(=O)N2CCCC(OCC(N)=O)C2)CC1 (some centres unmarked)
Solution: 6.76

Problem: Please look at this compound and report its pIC50: CN(c1ncnc2[nH]ccc12)[C@H]1CC[C@H](CS(=O)(=O)N2CCC(C#N)CC2)CC1
Solution: 6.37

Problem: Please look at this compound and report its pIC50: CN(c1ncnc2[nH]ccc12)[C@H]1CC[C@H](CS(=O)(=O)N2CCC(COCC3CC3)CC2)CC1
Solution: 6.77
